Where these numbers come from: patent US20180057507A1

Molecular target: human DLK (Homo sapiens, UniProt Q12852)
Sequence (Q12852 whole entry): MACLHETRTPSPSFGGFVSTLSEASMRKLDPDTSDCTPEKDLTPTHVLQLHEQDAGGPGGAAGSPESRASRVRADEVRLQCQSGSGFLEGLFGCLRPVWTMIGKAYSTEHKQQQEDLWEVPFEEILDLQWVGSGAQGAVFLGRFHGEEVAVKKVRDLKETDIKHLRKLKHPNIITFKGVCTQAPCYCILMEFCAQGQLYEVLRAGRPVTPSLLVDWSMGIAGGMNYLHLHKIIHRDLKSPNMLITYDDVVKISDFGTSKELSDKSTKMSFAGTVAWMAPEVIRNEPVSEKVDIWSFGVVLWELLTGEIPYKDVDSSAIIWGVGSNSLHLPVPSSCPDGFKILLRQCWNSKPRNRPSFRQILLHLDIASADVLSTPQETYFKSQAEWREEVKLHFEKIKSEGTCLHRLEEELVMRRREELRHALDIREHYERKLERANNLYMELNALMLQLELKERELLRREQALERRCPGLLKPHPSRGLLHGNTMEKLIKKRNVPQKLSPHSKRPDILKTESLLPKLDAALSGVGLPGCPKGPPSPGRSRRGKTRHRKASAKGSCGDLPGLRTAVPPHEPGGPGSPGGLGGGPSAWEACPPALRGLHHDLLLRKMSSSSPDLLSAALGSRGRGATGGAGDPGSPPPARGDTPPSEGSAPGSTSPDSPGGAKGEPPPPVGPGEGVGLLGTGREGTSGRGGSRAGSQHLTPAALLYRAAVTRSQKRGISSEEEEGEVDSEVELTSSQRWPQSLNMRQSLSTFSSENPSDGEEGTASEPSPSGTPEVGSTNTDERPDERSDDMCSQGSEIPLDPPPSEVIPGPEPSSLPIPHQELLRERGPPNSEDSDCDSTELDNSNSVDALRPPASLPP
Assay: DLK Kd Determinations (KINOMEscan KdELECT, DiscoveRx)
Conditions: fusion protein of full length human DLK (amino acids 1-859) and NFkB DNA binding domain; qPCR readout; duplicate
MEASUREMENT KIND: Kd (µM)

Please review the entries below; each comes with its answer.
1) Nc1ncc(-c2cn([C@H]3[C@@H]4CN(CC(F)F)C[C@@H]43)c(CC3CC3)n2)cc1OC(F)(F)F ... 0.093
2) CC(C)c1nc(-c2cnc(N)c(C(F)(F)F)c2)cn1[C@H]1[C@@H]2CNC[C@@H]21 ... 0.12
3) COCCN1C[C@@H]2[C@H](C1)[C@H]2n1cc(-c2cnc(N)c(C(F)(F)F)c2)nc1C1CC1 ... 0.061

I: CC(C)c1nc(-c2cnc(N)c(C(F)(F)F)c2)cn1C1CN(C2COC2)C1
II: Nc1ncc(-c2cn([C@H]3[C@@H]4CN(C5COC5)C[C@@H]43)c(C3CCC3)n2)cc1C(F)(F)F
III: CC(C)c1nc(-c2cnc(N)c(C(F)(F)F)c2)cn1C1CC(F)(F)C1
IV: CC(C)c1nc(-c2cnc(N)c(OC(F)(F)F)c2)cn1[C@H]1[C@@H]2CC(N3CCCOCC3)C[C@@H]21 (single isomer, unassigned) [Example 20b]
Q) Arrange the 4 compounds from largest to smallest Kd. Put the labels in the requested order and list them out.
A) III, I, II, IV

====

Molecular target: human DLK (Homo sapiens)
Experiment: DLK Kd Determinations (KINOMEscan KdELECT, DiscoveRx)
Settings: fusion protein of full length human DLK (amino acids 1-859) and NFkB DNA binding domain; qPCR readout; duplicate
pKd: −log10 of the molar value.
MEASUREMENT KIND: pKd

Please review the entries below; each comes with its answer.
1. CC(C)c1nc(-c2cnc(N)c(C(F)(F)F)c2)cn1[C@H]1[C@@H]2CC(N3CCN(CCF)CC3)C[C@@H]21 (single isomer, unassigned) [Example 155a] ... 7.64
2. Nc1ncc(-c2cn([C@H]3[C@@H]4CNC[C@@H]43)c(CC3CC3)n2)cc1C(F)(F)F ... 7.30
3. Nc1ncc(-c2cn([C@H]3[C@@H]4CN(C5COC5)C[C@@H]43)c(CC(F)(F)F)n2)cc1C(F)(F)F ... 7.00
4. Nc1ncc(-c2cn([C@H]3[C@@H]4CC(N5CCN(CCF)CC5)C[C@@H]43)c(CC3CC3)n2)cc1OC(F)(F)F (single isomer, unassigned) [Example 152b] ... 7.89

A: CN1CCN(C2C[C@@H]3[C@H](C2)[C@H]3n2cc(-c3cnc(N)c(C(F)(F)F)c3)nc2C2CC2)CC1 (single isomer, unassigned) [Example 129a]
B: CC(C)c1nc(-c2cnc(N)c(C(F)(F)F)c2)cn1[C@H]1[C@@H]2CC(N3CCN(C)CC3)C[C@@H]21 (stereo partly drawn) [Example 144]
Q) Among A and B , which shows a numerically higher pKd result? Field: selected label. Fill in the label of the entry you choose.
A) A

====

Biological target: human DLK (Homo sapiens)
Experiment: Phospho-cJun Cellular Assay
Settings: HEK293 cells stably transfected with Dox-inducible human DLK; p-cJun (Ser63); 5 h compound incubation
Description: Phospho-cJun Cellular Assay HEK293 cells stably transfected with a Dox-inducible human DLK were plated into a 384-well plate in 20 μl (40,000 cells/well) of DMEM medium (without phenol red) containing 10% fetal bovine serum, 1.5 μg/ml doxycycline and 1 μg/ml puromycin. The cells as negative control were grown in the absence of doxycycline. The plate was incubated at 37° C., 5% CO2 for 20 h, before DMSO (control) or compounds diluted in medium were added. […]
pIC50: −log10 of the molar value.
MEASUREMENT KIND: pIC50

Please review the entries below; each comes with its answer.
1) Nc1ncc(-c2cn([C@H]3[C@@H]4CC(N5CCCOCC5)C[C@@H]43)c(C3CC3)n2)cc1C(F)(F)F (single isomer, unassigned) [Example 141a] ... 6.18
2) CC(C)c1nc(-c2cnc(N)c(C(F)(F)F)c2)cn1[C@H]1[C@@H]2CC(N3CCN(CCF)CC3)C[C@@H]21 (single isomer, unassigned) [Example 155b] ... 5.94
3) Nc1ncc(-c2cn([C@H]3[C@@H]4CN(C5CCOCC5)C[C@@H]43)c(C3CC3)n2)cc1OC(F)(F)F [Example 66] ... 6.08
4) CC(C)Cc1nc(-c2cnc(N)c(OC(F)(F)F)c2)cn1[C@H]1[C@@H]2CC(N3CCN(CCF)CC3)C[C@@H]21 (single isomer, unassigned) [Example 159a] ... 6.23
5) CC(C)Cc1nc(-c2cnc(N)c(OC(F)(F)F)c2)cn1[C@H]1[C@@H]2CC(N3CCN(C)CC3)C[C@@H]21 (stereo partly drawn) [Example 158] ... 6.30
6) Nc1ncc(-c2cn([C@H]3[C@@H]4CN(CCF)C[C@@H]43)c(CC3CC3)n2)cc1OC(F)F [Example 116] ... 5.84
7) CC(C)c1nc(-c2cnc(N)c(C(F)(F)F)c2)cn1C1CC2(CC(N3CCOCC3)C2)C1 (stereo not drawn) [Example 38] ... 5.94
8) COCCN1C[C@@H]2[C@H](C1)[C@H]2n1cc(-c2cnc(N)c(OC(F)F)c2)nc1CC1CC1 [Example 117] ... 6.01
9) CC(C)c1nc(-c2cnc(N)c(C(F)(F)F)c2)cn1[C@H]1[C@@H]2CC(N3CCOC[C@@H]3C)C[C@@H]21 (stereo partly drawn) [Example 143] ... 5.82

a: Nc1ncc(-c2cn([C@H]3[C@@H]4CC(N5CCN(CCF)CC5)C[C@@H]43)c(CC3CC3)n2)cc1OC(F)(F)F (single isomer, unassigned) [Example 152a]
b: CC(C)c1nc(-c2cnc(N)c(OC(F)(F)F)c2)cn1[C@H]1[C@@H]2CC(N3CCOC[C@@H]3C)C[C@@H]21 (single isomer, unassigned) [Example 157b]
c: CC(C)Cc1nc(-c2cnc(N)c(C(F)(F)F)c2)cn1[C@H]1[C@@H]2CC(N3CCN(C)CC3)C[C@@H]21 (single isomer, unassigned) [Example 146a]
Q) Arrange the 3 compounds from largest to smallest pIC50. Put the labels in the requested order and list them out.
A) c, b, a
(c: 6.42, b: 6.08, a: 5.87)

====

Molecular target: UniProt:Q12852
Assay: Phospho-cJun Cellular Assay
Settings: HEK293 cells stably transfected with Dox-inducible human DLK; p-cJun (Ser63); 5 h compound incubation
pIC50: −log10 of the molar value.
MEASUREMENT KIND: pIC50

Please review the entries below; each comes with its answer.
1. CCC(O)c1nc(-c2cnc(N)c(C(F)(F)F)c2)cn1C1CCC1 (stereo not shown) [Example 22] ... 6.26
2. Nc1ncc(-c2cn([C@H]3[C@@H]4CN(CCF)C[C@@H]43)c(C3CC3)n2)cc1OC(F)(F)F [Example 69] ... 5.61
3. CCCc1nc(-c2cnc(N)c(C(F)(F)F)c2)cn1[C@H]1[C@@H]2CN(CCF)C[C@@H]21 [Example 84] ... 5.79

1: CC(C)c1nc(-c2cnc(N)c(C(F)(F)F)c2)cn1C1CC1 [Example 6]
2: CCC(CC)c1nc(-c2cnc(N)c(C(F)(F)F)c2)cn1[C@H]1[C@@H]2CN(CCF)C[C@@H]21 [Example 125]
3: CC(C)c1nc(-c2cnc(N)c(C(F)(F)F)c2)cn1[C@H]1C[C@@H](N2CCOCC2)C1 [Example 44]
4: Nc1ncc(-c2cn([C@H]3[C@@H]4CC(N5CCN(CCF)CC5)C[C@@H]43)c(C3CC3)n2)cc1OC(F)(F)F (single isomer, unassigned) [Example 154b]
Q) Arrange the 4 compounds from largest to smallest pIC50. Put the labels in the requested order and list them out.
A) 4, 2, 1, 3

====

Biological target: human DLK (Homo sapiens, UniProt Q12852)
Test: Phospho-cJun Cellular Assay
Settings: HEK293 cells stably transfected with Dox-inducible human DLK; p-cJun (Ser63); 5 h compound incubation
pIC50: −log10 of the molar value.
MEASUREMENT KIND: pIC50

Please review the entries below; each comes with its answer.
1) CC(C)c1nc(-c2cnc(N)c(C(F)(F)F)c2)cn1[C@H]1[C@@H]2CC(N3CCN(CCF)CC3)C[C@@H]21 (single isomer, unassigned) [Example 155a] ... 5.93
2) CC(C)Cc1nc(-c2cnc(N)c(C(F)(F)F)c2)cn1[C@H]1[C@@H]2CC(N3CCN(C)CC3)C[C@@H]21 (single isomer, unassigned) [Example 146b] ... 6.46
3) CC(C)c1nc(-c2cnc(N)c(OC(F)(F)F)c2)cn1[C@H]1[C@@H]2CC(N3CCN(CCF)CC3)C[C@@H]21 (single isomer, unassigned) [Example 156b] ... 6.06

1: CC(C)c1nc(-c2cnc(N)c(OC(F)F)c2)cn1[C@H]1[C@@H]2CC(N3CCN(C)CC3)C[C@@H]21 (single isomer, unassigned) [Example 145a]
2: CC(C)c1nc(-c2cnc(N)c(OC(F)F)c2)cn1[C@H]1[C@@H]2CN(C3COC3)C[C@@H]21
Q) Among 1 and 2 , which shows a numerically higher pIC50 result? Field: selected label. Fill in the label of the entry you choose.
A) 1
